# measurementTarget: CYP2D6 (Homo sapiens)
# Sequence (P10635 whole entry): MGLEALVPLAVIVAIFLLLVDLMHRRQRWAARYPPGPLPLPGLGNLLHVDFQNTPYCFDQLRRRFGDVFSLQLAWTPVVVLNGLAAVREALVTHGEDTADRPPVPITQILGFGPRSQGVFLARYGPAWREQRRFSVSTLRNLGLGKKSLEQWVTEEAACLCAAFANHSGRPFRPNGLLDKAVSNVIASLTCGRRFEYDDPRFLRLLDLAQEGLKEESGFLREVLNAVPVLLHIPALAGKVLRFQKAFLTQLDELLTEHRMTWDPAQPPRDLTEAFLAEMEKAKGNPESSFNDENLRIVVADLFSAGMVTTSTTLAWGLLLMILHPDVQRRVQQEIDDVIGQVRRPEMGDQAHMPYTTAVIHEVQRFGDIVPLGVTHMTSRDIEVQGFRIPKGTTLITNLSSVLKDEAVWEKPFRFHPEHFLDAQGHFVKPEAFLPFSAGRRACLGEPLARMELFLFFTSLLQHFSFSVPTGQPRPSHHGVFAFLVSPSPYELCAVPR
# test: biochemical
pIC50: −log10 of the molar value.
endpointName: pIC50

INSERT INTO assay_data (compound, resultvalue) VALUES
  ('OC1(c2ccc(Cl)cc2)c2ccccc2C2=NCCN21 (stereo not shown) [Compound A, reference compound]', 5.38);

---

# test: physchem
# conditionDescription: 37 °C, pH 7.4, aqueous buffer, kinetic from dmso stock, HBSS (pH 7.4) uptake assay buffer
endpointName: solubility kinetic

INSERT INTO measurements (compound, resultvalue) VALUES
  ('OC1(c2ccc(Cl)cc2)c2ccccc2C2=NCCN21 (stereo not shown) [Compound A, reference compound]', '≥ 30 µM');

---

# measurementTarget: MATE1 (Homo sapiens, UniProt Q96FL8)
# Sequence (Q96FL8 whole entry): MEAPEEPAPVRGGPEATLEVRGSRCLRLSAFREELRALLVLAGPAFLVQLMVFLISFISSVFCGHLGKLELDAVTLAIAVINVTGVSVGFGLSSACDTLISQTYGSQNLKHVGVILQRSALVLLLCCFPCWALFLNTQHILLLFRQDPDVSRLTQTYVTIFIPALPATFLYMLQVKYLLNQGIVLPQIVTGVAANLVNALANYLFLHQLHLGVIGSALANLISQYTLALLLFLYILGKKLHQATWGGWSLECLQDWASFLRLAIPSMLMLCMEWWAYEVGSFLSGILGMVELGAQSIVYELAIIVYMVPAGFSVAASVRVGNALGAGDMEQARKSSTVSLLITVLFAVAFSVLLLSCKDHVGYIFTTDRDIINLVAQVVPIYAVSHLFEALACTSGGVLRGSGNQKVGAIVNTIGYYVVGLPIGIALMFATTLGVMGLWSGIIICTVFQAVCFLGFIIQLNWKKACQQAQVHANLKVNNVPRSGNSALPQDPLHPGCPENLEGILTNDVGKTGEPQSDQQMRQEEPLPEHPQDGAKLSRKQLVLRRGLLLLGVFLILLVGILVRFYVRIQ
# test: Uptake transporter inhibition assay, MATE1 (metformin)
# conditionDescription: human, Relative inhibition, 10.00 μM nominal, IC50 determination
endpointName: inhibition at 10 µM

INSERT INTO results (compound, measurementtarget, endpointname, resultvalue) VALUES
  ('OC1(c2ccc(Cl)cc2)c2ccccc2C2=NCCN21 (stereo not shown) [Compound A, reference compound]', 'MATE1 (Homo sapiens, UniProt Q96FL8)', 'inhibition at 10 µM', '61%');

---

# measurementTarget: OAT3 (Homo sapiens)
# Sequence (Q8TCC7 1-542): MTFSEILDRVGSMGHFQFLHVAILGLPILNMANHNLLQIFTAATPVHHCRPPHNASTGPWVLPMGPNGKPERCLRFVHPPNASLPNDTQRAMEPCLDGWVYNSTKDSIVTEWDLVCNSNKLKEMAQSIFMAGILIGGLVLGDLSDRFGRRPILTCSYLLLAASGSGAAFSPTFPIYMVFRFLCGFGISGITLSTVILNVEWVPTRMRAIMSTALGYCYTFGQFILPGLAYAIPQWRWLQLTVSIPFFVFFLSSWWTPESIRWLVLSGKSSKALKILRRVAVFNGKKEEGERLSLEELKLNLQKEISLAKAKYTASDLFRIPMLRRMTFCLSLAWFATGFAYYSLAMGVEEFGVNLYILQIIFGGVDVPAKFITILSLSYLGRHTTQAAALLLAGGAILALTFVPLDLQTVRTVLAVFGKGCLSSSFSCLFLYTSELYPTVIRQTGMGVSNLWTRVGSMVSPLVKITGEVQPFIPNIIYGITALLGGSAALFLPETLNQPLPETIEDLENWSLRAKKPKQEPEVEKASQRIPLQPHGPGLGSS
# test: Uptake transporter inhibition assay, OAT3 (estrone-3-sulfate)
# conditionDescription: human, Relative inhibition, 3.00 μM nominal
endpointName: inhibition at 3 μM (%)

INSERT INTO assay_data (compound, resultvalue) VALUES
  ('OC1(c2ccc(Cl)cc2)c2ccccc2C2=NCCN21 (stereo not shown) [Compound A, reference compound]', 2);

---

# measurementTarget: OATP1B1 (Homo sapiens, UniProt Q9Y6L6)
# Sequence (Q9Y6L6 whole entry): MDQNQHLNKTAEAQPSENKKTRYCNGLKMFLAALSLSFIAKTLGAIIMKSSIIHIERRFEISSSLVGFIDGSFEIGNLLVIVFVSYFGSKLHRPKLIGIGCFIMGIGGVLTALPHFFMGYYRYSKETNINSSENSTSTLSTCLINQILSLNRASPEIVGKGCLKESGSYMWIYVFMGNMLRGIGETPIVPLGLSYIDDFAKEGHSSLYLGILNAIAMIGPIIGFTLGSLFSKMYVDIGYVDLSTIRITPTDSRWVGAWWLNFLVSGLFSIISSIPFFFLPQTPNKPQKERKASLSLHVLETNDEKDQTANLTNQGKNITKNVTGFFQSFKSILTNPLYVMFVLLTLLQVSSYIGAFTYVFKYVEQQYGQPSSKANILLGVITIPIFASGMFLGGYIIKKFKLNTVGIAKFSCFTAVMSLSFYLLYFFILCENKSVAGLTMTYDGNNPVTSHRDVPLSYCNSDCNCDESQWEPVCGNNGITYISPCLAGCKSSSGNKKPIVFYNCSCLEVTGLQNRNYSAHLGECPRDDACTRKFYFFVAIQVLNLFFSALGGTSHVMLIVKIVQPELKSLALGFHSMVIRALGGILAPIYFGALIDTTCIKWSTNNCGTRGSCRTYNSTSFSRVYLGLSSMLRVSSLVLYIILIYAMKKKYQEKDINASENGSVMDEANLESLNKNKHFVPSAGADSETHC
# test: Uptake transporter inhibition assay, OATP1B1 (estradiol-17-β-glucuronide)
# conditionDescription: follow-up assay, NSB-corrected concentrations
endpointName: IC50 (µM)

INSERT INTO results (compound, measurementtarget, endpointname, endpointunit, resultvalue) VALUES
  ('Clc1ccc(C2(OCC3OCCO3)c3ccccc3C3=NCCN32)cc1 (stereo not shown)', 'OATP1B1 (Homo sapiens, UniProt Q9Y6L6)', 'IC50', 'µM', 31.4);

---

# measurementTarget: OCT2 (Homo sapiens)
# test: Uptake transporter inhibition assay, OCT2 (metformin)
# conditionDescription: human, Relative inhibition, 30.00 μM nominal; metformin; Table 123
endpointName: inhibition at 30 μM

INSERT INTO measurements (molecule, measurementtarget, endpointname, resultvalue) VALUES
  ('OC1(c2ccc(Cl)cc2)c2ccccc2C2=NCCN21 (stereo not shown) [Compound A, reference compound]', 'OCT2 (Homo sapiens)', 'inhibition at 30 μM', '86%');

---

# measurementTarget: MATE1 (Homo sapiens, UniProt Q96FL8)
# test: Uptake transporter inhibition assay, MATE1 (metformin)
# conditionDescription: human, Maximum % inhibition, MATE1, HEK293 cells, metformin (10 μM); NIO: no inhibition observed
endpointName: inhibition at 10 µM (%)

INSERT INTO assay_data (molecule, endpointunit, resultvalue) VALUES
  ('OC1(c2ccc(Cl)cc2)c2ccccc2C2=NCCN21 (stereo not shown) [Compound A, reference compound]', '%', 79);

---

# measurementTarget: CYP2C9 (Homo sapiens)
# Sequence (P11712 whole entry): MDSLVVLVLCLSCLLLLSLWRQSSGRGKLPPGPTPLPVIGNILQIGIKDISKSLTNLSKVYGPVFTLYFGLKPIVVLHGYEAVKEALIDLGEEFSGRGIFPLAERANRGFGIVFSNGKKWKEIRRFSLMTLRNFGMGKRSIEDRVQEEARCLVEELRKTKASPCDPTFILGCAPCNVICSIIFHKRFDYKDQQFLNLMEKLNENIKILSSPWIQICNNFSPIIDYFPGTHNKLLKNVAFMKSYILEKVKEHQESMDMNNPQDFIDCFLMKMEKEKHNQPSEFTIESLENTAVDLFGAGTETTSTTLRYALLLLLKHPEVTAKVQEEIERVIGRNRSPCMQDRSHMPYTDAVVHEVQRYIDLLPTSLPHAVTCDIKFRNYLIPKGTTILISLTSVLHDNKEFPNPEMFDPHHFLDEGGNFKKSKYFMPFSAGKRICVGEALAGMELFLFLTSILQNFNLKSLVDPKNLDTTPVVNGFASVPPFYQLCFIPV
# test: in vitro
# conditionDescription: both, pH 7.4
endpointName: inhibition at 50 µM (%)

INSERT INTO assay_data (molsmiles, measurementtarget, endpointunit, resultvalue) VALUES
  ('Nc1ccc(S(=O)(=O)Nc2ccnn2-c2ccccc2)cc1', 'CYP2C9 (Homo sapiens)', '%', 98.7);

---

# measurementTarget: UniProt:O15245
# test: Uptake transporter inhibition assay, OCT1 (sumatriptan)
# conditionDescription: human, Relative Inhibition, 30.00 μM nominal; sumatriptan; IC50 determination, Table 122
endpointName: inhibition at 30 μM (%)

INSERT INTO results (compound, endpointname, resultvalue) VALUES
  ('OC1(c2ccc(Cl)cc2)c2ccccc2C2=NCCN21 (stereo not shown) [Compound A, reference compound]', 'inhibition at 30 μM', 86);

---

# measurementTarget: OCT1 (Homo sapiens, UniProt O15245)
# Sequence (O15245 whole entry): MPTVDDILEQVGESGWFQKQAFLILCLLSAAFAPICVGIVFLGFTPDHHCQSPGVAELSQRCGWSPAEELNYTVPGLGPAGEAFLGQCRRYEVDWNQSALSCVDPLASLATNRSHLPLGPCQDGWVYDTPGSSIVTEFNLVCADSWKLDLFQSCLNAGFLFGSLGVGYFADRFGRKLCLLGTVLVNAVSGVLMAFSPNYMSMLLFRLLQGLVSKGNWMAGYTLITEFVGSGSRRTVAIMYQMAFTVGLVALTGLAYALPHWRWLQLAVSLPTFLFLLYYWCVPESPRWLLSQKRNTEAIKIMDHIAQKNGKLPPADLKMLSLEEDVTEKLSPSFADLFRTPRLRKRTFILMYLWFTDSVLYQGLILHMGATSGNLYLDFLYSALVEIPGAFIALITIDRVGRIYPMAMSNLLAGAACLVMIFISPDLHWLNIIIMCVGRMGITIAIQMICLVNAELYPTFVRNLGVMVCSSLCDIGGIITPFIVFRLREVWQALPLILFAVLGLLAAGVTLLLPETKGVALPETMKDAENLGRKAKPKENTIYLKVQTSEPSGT
# test: Uptake transporter inhibition assay, OCT1 (sumatriptan)
# conditionDescription: human, Relative inhibition, 3.00 μM nominal; sumatriptan; Table 121
# Method: Uptake experiments were performed using HEK293 cells stably expressing the respective uptake transporters. The assays were conducted according to the actual SOLVO uptake transporter assay protocols (PR-ASY-UPT-General Protocol for Uptake Transporter Inhibition Assays). […] After the experiment, cells were washed twice with 100 μL of appropriate cold buffer and lysed with 150 μL scintillation cocktail. Radiolabeled probe substrate transport was determined by liquid scintillation counting. […]
endpointName: inhibition at 3 μM (%)

INSERT INTO measurements (compound, endpointunit, resultvalue) VALUES
  ('OC1(c2ccc(Cl)cc2)c2ccccc2C2=NCCN21 (stereo not shown) [Compound A, reference compound]', '%', 49);

---

# measurementTarget: OCT2 (Homo sapiens, UniProt O15244)
# Sequence (O15244 1-555): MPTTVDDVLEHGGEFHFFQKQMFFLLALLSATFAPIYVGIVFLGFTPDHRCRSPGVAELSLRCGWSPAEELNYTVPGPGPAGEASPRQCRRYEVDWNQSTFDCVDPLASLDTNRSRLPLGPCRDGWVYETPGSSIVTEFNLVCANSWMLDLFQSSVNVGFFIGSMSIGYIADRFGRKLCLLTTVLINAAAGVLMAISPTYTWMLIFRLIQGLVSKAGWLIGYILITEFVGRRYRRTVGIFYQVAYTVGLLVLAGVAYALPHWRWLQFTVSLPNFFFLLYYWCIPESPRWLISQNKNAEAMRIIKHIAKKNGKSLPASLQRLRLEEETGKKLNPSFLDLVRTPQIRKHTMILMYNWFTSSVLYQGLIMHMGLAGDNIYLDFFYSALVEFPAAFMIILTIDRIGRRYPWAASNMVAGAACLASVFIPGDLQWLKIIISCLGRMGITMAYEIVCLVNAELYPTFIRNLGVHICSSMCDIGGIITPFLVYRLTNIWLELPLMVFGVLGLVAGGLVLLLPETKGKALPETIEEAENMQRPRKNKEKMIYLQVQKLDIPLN
# test: Uptake transporter inhibition assay, OCT2 (metformin)
# conditionDescription: human, Relative inhibition, 3.00 μM nominal; metformin; Table 123
endpointName: inhibition at 3 μM (%)

INSERT INTO results (molecule, measurementtarget, endpointname, resultvalue) VALUES
  ('OC1(c2ccc(Cl)cc2)c2ccccc2C2=NCCN21 (stereo not shown) [Compound A, reference compound]', 'OCT2 (Homo sapiens, UniProt O15244)', 'inhibition at 3 μM', 49);

---

# measurementTarget: OCT1 (Homo sapiens, UniProt O15245)
# test: Uptake transporter inhibition assay, OCT1 (sumatriptan)
# conditionDescription: human, Relative inhibition, 30.00 μM nominal; sumatriptan; Table 121
# Protocol: Uptake experiments were performed using HEK293 cells stably expressing the respective uptake transporters. The assays were conducted according to the actual SOLVO uptake transporter assay protocols (PR-ASY-UPT-General Protocol for Uptake Transporter Inhibition Assays). […] After the experiment, cells were washed twice with 100 μL of appropriate cold buffer and lysed with 150 μL scintillation cocktail. Radiolabeled probe substrate transport was determined by liquid scintillation counting. […]
endpointName: inhibition at 30 μM (%)

INSERT INTO assay_data (molecule, endpointname, endpointunit, resultvalue) VALUES
  ('OC1(c2ccc(Cl)cc2)c2ccccc2C2=NCCN21 (stereo not shown) [Compound A, reference compound]', 'inhibition at 30 μM', '%', 85);

---

# measurementTarget: OCT2 (Homo sapiens, UniProt O15244)
# test: Uptake transporter inhibition assay, OCT2 (metformin)
# conditionDescription: human, Maximum % inhibition, OCT2, HEK293 cells, metformin (10 μM); NIO: no inhibition observed
endpointName: inhibition at 10 µM (%)

INSERT INTO results (compound, endpointname, resultvalue) VALUES
  ('OC1(c2ccc(Cl)cc2)c2ccccc2C2=NCCN21 (stereo not shown) [Compound A, reference compound]', 'inhibition at 10 µM', 91);

The values you see were collected from patent US20250108038A1.
